assay: recombinant barcode read abundance after kanamycin selection (control-corrected) (log10(CPM+1)); higher = more efficient recombination; sequences stand for … in AGTGCAGAGAAAATCGGCCAGTTTTCTCTGCCTGCAGTCCGCATGCCGT…AGATTTATGCAGCGGACTGCCTTTCTCCCAAAGTGATAAACCGGACAGTATCATGGACCGGTTTTCCCGGTAATCCGTATTTGCAAGGTTGGTTTCACT; site = the 11-nt target;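 also: IS621 recombinase and bridge RNA in Escherichia coli cells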
Binning rule for recorded recombinant barcode read abundance (log10): bottom range (below 0.08), center range (0.08 to below 0.3), top range (0.3 or more)

Asked: Any idea which band ACCGCTTCTTGGGTTCTAACCTGTTGCCT (site ACCGCTTCTAG) is in?
Given back: top range

Asked: Dear colleague, I would appreciate it if you could identify the bin for GTGGGCGCTTGGGTTCTAACCTGTTGCCT (site GTTGGCGCTAG) and reply at your convenience.
Given back: top range

Asked: Band assignment needed for CCTCATACTTGGGTTCTAACCTGTTGCCA (site CCTCATACTTG) please.
Given back: center range

Asked: Which class does CGTCAGCCTTGGGTTCTAACCTGTTGCCT (site CGTCAGCCTAG) fall in?
Given back: center range

Asked: Categorize the following entry: TCGATCCCTTGGGTTCTAACCTGTTGCGT (site CTTTGAACTTA)
Given back: top range

Asked: Quick check: band for CTGCTACCTTGGGTTCTAACCTGTTGCCT (site CTGCTACCTAG)
Given back: top range

Asked: Where would TGTAGTCCTTGGGTTCTAACCTGTTGCTT (site TGTAGTCCTAT) land among the classes by reported recombinant barcode read abundance (log10)?
Given back: bottom range

Asked: Band assignment needed for TCCGCTGCTTGGGTTCTAACCTGTTGCCT (site TCCGCTCCTAG) please.
Given back: bottom range

Asked: Entry GAGTACCCTTGGGTTCTAACCTGTTGCGT (site GAGTACCCTAC) belongs to which category?
Given back: top range

Asked: Sort ACTCTAACTTGGGTTCTAACCTGTTGCTT (site ACTGTAACTAA) into one of the categories.
Given back: bottom range

Asked: Kindly identify the class of ACAAAGACTTGGGTTCTAACCTGTTGCCT (site ACAAGGGCTAG) .
Given back: bottom range

Asked: Class (by measured recombinant barcode read abundance (log10)) for GTAGTAGCTTGGGTTCTAACCTGTTGCCT (site GTAGTACCTAG)
Given back: bottom range

Asked: Hey, which category is TACTTCGCTTGGGTTCTAACCTGTTGCCT (site TACTTCGCTAG) in, do you know?
Given back: center range

Asked: Sort into band: CTAGTGACTTGGGTTCTAACCTGTTGCGA (site CTAGTGACTAC)
Given back: bottom range

Asked: Consider GAGATGTCTTGGGTTCTAACCTGTTGCCT (site GAGATGTCTAG) . To which recombinant barcode read abundance (log10) class does it belong?
Given back: top range

Asked: State the class of the sequence shown: TTCAACTCTTGGGTTCTAACCTGTTGCGT (site TTCAACTCTAC)
Given back: top range

Asked: Category lookup for the sequence AGTACTACTTGGGTTCTAACCTGTTGCCT (site ACTACTACTAG)
Given back: bottom range

Asked: GET /class?item= TAACCCACTTGGGTTCTAACCTGTTGCCT (site TTACGCACTAG)
Given back: top range

Asked: Into which bin does this sequence go? CACCAGTCTTGGGTTCTAACCTGTTGCGG (site CACCAGTCTCC)
Given back: top range

Asked: Input GAGGGTCCTTGGGTTCTAACCTGTTGCGT (site GAGGGTCCTAA) ; output its category
Given back: center range

Asked: Bin this entry: GCTTACCCTTGGGTTCTAACCTGTTGCTA (site TAGCTAGCTAC)
Given back: bottom range

Asked: Any idea which band GCACTACCTTGGGTTCTAACCTGTTGCCT (site GCACCACCTAG) is in?
Given back: top range

Asked: Hello team, could you let me know which band the following sequence falls into: ACCTGTACTTGGGTTCTAACCTGTTGCCT (site ACCGGTACTAG)
Given back: center range

Asked: Quick check: band for TACACTACTTGGGTTCTAACCTGTTGCAT (site TACCCTACTAT)
Given back: center range

Asked: Field: class (recombinant barcode read abundance (log10)) — entry: AGGGTCACTTGGGTTCTAACCTGTTGCCT (site ATGGTCACTAG)
Given back: top range

Asked: Kindly state the category for this sequence: GCGTCTACTTGGGTTCTAACCTGTTGCCT (site GCGTGGACTAG)
Given back: bottom range

Asked: Class? Entry: ATCCACCCTTGGGTTCTAACCTGTTGCGG (site GACCACCCTCC)
Given back: center range

Value source: the supplement of paper PMC11208160
